The measurements presented in this section are drawn from patent US7928238B2.

molecular target: CETP (Homo sapiens, UniProt P11597); construct: from tissue; host or cells: human plasma from normal volunteers; assay: CETP in vitro assay (Amersham kit TRKQ7005; modified protocol in human plasma, [3H]CE-HDL transfer); format: biochemical; settings: 1 μM compound; read-out: % Inhibition @ 1 μM
value-kind: inhibition at 1 µM (%)

Past entries and their recorded results:
>  <smiles>
O[C@H](CN1c2cccc(-c3cccc(OC(F)(F)F)c3)c2CC[C@H]1c1cccc(OC(F)(F)C(F)F)c1)C(F)(F)F

>  <study-system>
CETP (Homo sapiens, UniProt P11597)

>  <reading>
46

$$$$
>  <smiles>
COc1cccc(-c2cccc3c2CC[C@H](c2cccc(OC(F)(F)F)c2)N3C[C@H](O)C(F)(F)F)c1

>  <study-system>
CETP (Homo sapiens, UniProt P11597)

>  <reading>
30

$$$$

A: C[C@@H](O)CN1c2cccc(-c3cccc(OC(F)(F)F)c3)c2CC[C@H]1c1cccc(OC(F)(F)F)c1
B: C[C@@H](O)CN1c2cccc(-c3cccc(F)c3)c2CC[C@@H]1c1cccc(OC(F)(F)C(F)F)c1
Between A and B , whose recorded inhibition at 1 µM is greater? Write down the label attached to your selection. B
(B: 38%, A: 13%)

----------
Molecular target: CETP (Homo sapiens)
Construct: from tissue; host or cells: human plasma from normal volunteers
Sequence (P11597 18-493): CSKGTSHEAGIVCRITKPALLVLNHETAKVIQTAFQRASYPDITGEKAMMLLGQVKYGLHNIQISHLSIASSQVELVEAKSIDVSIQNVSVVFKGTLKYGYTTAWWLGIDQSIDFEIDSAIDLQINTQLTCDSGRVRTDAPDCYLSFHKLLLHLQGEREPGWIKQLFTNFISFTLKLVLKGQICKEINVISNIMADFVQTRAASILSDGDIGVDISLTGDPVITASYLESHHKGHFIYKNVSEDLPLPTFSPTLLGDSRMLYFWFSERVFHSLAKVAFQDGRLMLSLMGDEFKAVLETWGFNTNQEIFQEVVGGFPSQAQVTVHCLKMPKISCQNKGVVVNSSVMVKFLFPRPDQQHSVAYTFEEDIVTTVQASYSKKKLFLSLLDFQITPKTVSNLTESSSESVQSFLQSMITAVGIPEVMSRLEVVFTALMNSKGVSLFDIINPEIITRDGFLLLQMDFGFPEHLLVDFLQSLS
Assay: CETP in vitro assay (Amersham kit TRKQ7005; modified protocol in human plasma, [3H]CE-HDL transfer)
Format: biochemical
Conditions: 1 μM compound; 1 µM
value-kind: % Inhibition @ 1 μM (%)

>  <compound>
N#Cc1cccc(C2CCc3c(-c4cccc(OC(F)(F)F)c4)cccc3N2CC(O)C(F)(F)F)c1 (stereo not drawn) [Compound 28]

>  <% Inhibition @ 1 μM / %>
25

$$$$

A: OC(CN1c2cccc(-c3cccc(OC(F)(F)F)c3)c2CCC1c1cccs1)C(F)(F)F (stereo not drawn) [Compound 34]
B: OC(CCl)CN1c2cccc(-c3cccc(OC(F)(F)F)c3)c2CCC1c1cccc(OC(F)(F)F)c1 (stereo not drawn) [Compound 48]
C: OC(CN1c2cccc(-c3cccc(OC(F)(F)F)c3)c2CCC1c1ccccc1)C(F)(F)F (stereo not drawn) [Compound 19]
Please list these in order of increasing % Inhibition @ 1 μM. Thank you! Please reply with the labels ordered as requested. Many thanks. B, A, C
(B: 0%, A: 12%, C: 21%)

I: CC(C)Oc1cccc(-c2cccc3c2CCC(c2cccc(OC(F)(F)C(F)F)c2)N3CC(O)C(F)(F)F)c1 (stereo not drawn) [Compound 69]
II: OC(CN1c2cccc(-c3cccc(OC(F)(F)F)c3)c2CCC1C1CCCCC1)C(F)(F)F (stereo not drawn) [Compound 37]
Between item I and item II , which reported % Inhibition @ 1 μM is smaller? Write down the label attached to your selection. II
(II: 11%, I: 18%)

a: OC(CN1c2cccc(-c3cccc(OC(F)(F)F)c3)c2CCC1c1ccccc1)C(F)(F)F (stereo not drawn) [Compound 20]
b: OC(CN1c2cccc(Oc3cccc(Cl)c3Cl)c2CCC1c1cccc(OC(F)(F)C(F)F)c1)C(F)(F)F (stereo not drawn) [Compound 87]
Between item a and item b , which reported % Inhibition @ 1 μM is smaller? Write down the label attached to your selection. a
(a: 6%, b: 86%)

A: OC(CF)CN1c2cccc(-c3cccc(OC(F)(F)F)c3)c2CCC1c1cccc(OC(F)(F)F)c1 (stereo not drawn) [Compound 50]
B: OC(CN1c2cccc(-c3cccs3)c2CCC1c1cccc(OC(F)(F)C(F)F)c1)C(F)(F)F (stereo not drawn) [Compound 75]
C: Cc1cc(-c2cccc3c2CCC(c2cccc(OC(F)(F)C(F)F)c2)N3CC(O)C(F)(F)F)ccc1Cl (stereo not drawn) [Compound 5]
Please list these in order of increasing % Inhibition @ 1 μM. Thank you! Please reply with the labels ordered as requested. Many thanks. A, B, C
(A: 13%, B: 39%, C: 96%)
